Test system: MDA-MB-468 breast
PROCEDURE TEXT: NCI-60 one-dose screen, 48 h (100 = growth as untreated, 0 = no growth, -100 = all killed)
MEASUREMENT SETUP: 10 µM unless noted
About 83,000 compounds went through this panel and 20% of them were active in at least one assay; those are over-represented in the sample as a whole. The source made the active and inactive calls. How the source made its calls: active means growth percent below 10; inactive means the rest.
Catalogue of growth readings, one per entry.

Sample records with growth:
COMPOUND: OCc1cccnc1
MEASURED PARAMETER: growth
VALUE: 102% (inactive)
--
COMPOUND: N#CCc1ccc([N+](=O)[O-])cc1
MEASURED PARAMETER: growth
VALUE: 96.8% (inactive)
--
COMPOUND: Clc1ccc(C2=NN=C3C(Cc4ccccc4)=Nc4ccccc4N3C2)cc1
MEASURED PARAMETER: growth
VALUE: 84.7% (inactive)
--
COMPOUND: C#CCC#CCN1CCC[C@H]1C(=O)NCC(=O)OC
MEASURED PARAMETER: growth
VALUE: 99.1% (inactive)
--
COMPOUND: N#Cc1c(-c2ccccc2)nc(SCC(=O)N2CCN(c3ccccc3)CC2)[nH]c1=O
MEASURED PARAMETER: growth
VALUE: 106% (inactive)

// switching to the query compound
Query: # query: growth of entry `c1ccc(Nc2nc(-c3ccccn3)cs2)nc1`
Reply: -14.6% (active)

###

Tested on: MDA-MB-468 breast
PROCEDURE TEXT: NCI-60 one-dose screen, 48 h
MEASUREMENT SETUP: 10 µM unless noted
Compounds without any hit were thinned out: in the full panel of roughly 83,000, 20% have a hit. Activity calls are given as the source filed them. How the source made its calls: active means growth percent below 10; inactive means the rest.
Response enum: 1.0 (active), 0.0 (inactive)

Query: State the result this test recorded for `COc1ccccc1N(C(C)=O)C1=C(Cl)C(=O)c2ccccc2C1=O` .
Reply: 1.0

Query: Recorded test outcome, item CCOC(=O)C1=C(c2ccccc2)N=C2SC=C(c3ccc(Cl)cc3)N2C1c1ccc(Cl)cc1 (stereo not given)
Reply: 0.0

Query: # lookup: test call for `CCCCCCCCCCCCCC[n+]1cccc(C(N)=O)c1`
Reply: 1.0

Query: // return assay outcome for `O=C(NNC(=O)c1nc2cc(F)ccc2n2cccc12)c1cnccn1`
Reply: 0.0

Query: recorded result category for `COc1ccc(NC(=O)Cn2c(=O)sc3c(-c4ccc(Cl)cc4)cc(-c4ccc(Cl)cc4)nc32)cc1` in this test
Reply: 0.0

###

Test system: MDA-MB-468 breast
PROCEDURE TEXT: NCI-60 one-dose screen, 48 h (100 = growth as untreated, 0 = no growth, -100 = all killed)
MEASUREMENT SETUP: 10 µM unless noted
About 83,000 compounds went through this panel and 20% of them were active in at least one assay; those are over-represented in the sample as a whole.
# if measured growth < 30%: criterion met  # else: criterion not met

Query: Criterion: growth strictly below 30%. Is it met by `CC(C)c1[nH]ncc1-c1nc2ccc3[nH]ncc3c2c2c1CCCC2` ?
Reply: criterion not met

Query: Determine if `O=C(CN1CCOCC1)Nc1ccc2ncnc(Nc3ccc(Oc4cccc(F)c4)c(Cl)c3)c2c1` shows growth strictly lower than 30%.
Reply: criterion met

###

System: MDA-MB-468 breast
PROCEDURE TEXT: NCI-60 one-dose screen, 48 h (100 = growth as untreated, 0 = no growth, -100 = all killed)
MEASUREMENT SETUP: 10 µM unless noted
The panel holds about 83,000 compounds, 20% with a hit somewhere; the sample as a whole holds those more often. The source made the active and inactive calls. The calls were made as follows: active = growth percent below 10; inactive = the rest.
MEASURED PARAMETER: growth

COMPOUND: Oc1cccc2oc(=S)[nH]c12
MEASUREMENT TARGET: MDA-MB-468 breast
VALUE: 105% (inactive)
--
COMPOUND: COc1ccc2[nH]cc(-c3nc(-c4c[nH]c5ncccc45)cs3)c2c1
MEASUREMENT TARGET: MDA-MB-468 breast
VALUE: 39.1% (inactive)
--
COMPOUND: COc1cc(-c2nc(N)n(CC(=O)Nc3ccc(/C(C)=N\O)cc3)n2)cc(OC)c1OC
MEASUREMENT TARGET: MDA-MB-468 breast
VALUE: 104% (inactive)
--
COMPOUND: Nc1nc(N)c(N)c(Nc2ccc(CCO)cc2)n1
MEASUREMENT TARGET: MDA-MB-468 breast
VALUE: 92.8% (inactive)

Query: Dear colleague, I am looking for the recorded growth of the following compound: `C[C@]12CC[C@@H]3c4ccc(O)c([N+](=O)[O-])c4CC[C@H]3[C@@H]1CC[C@@H]2NS(=O)(=O)c1ccc(C(F)(F)F)cc1`
Reply: 25.2% (inactive)

Query: I'd like to know its growth. The compound in question is `Brc1ccc(SSc2ccc(Br)cc2)cc1`
Reply: 87% (inactive)

Query: Name the reported growth value associated with the compound Nc1n[nH]c2cc(F)c([C@@H]3Nc4c(F)cc5[nH]ncc5c4[C@H]4C5CCC(C5)[C@@H]34)cc12 (stereo not given in full)
Reply: -0.149% (active)

###

Reported values of growth for individual entries
Tested on: M14 melanoma
PROCEDURE TEXT: NCI-60 one-dose screen, 48 h (100 = growth as untreated, 0 = no growth, -100 = all killed)
MEASUREMENT SETUP: 10 µM
About 83,000 compounds went through this panel and 20% of them were active in at least one assay; those are over-represented in the sample as a whole.
Give the value in % but do not write % after it.

# example entries with known answers
MOLECULE: CCOC(=O)c1ccc(NC(=O)CSC(CC(=O)c2sc(Nc3ccccn3)nc2C)c2ccccc2F)cc1 (configuration not stated)
MEASUREMENT TARGET: M14 melanoma
growth [%]: 0.872
//
MOLECULE: C#C[C@]1(O)CC[C@H]2[C@@H]3CC=C4c5sc(Nc6cc(C)cc(C)n6)nc5CC[C@]4(C)[C@H]3CC[C@@]21C
MEASUREMENT TARGET: M14 melanoma
growth [%]: -42.1
//
MOLECULE: Cc1cc(N=C2NC(=O)S/C2=C\c2ccc(F)cc2)n[nH]1
MEASUREMENT TARGET: M14 melanoma
growth [%]: -30.7
//
MOLECULE: O=C1NC2C=CC=CC2/C1=C1/SC(=S)N(C2CC(=O)N(c3ccc(Br)cc3)C2=O)C1=O (configuration not stated)
MEASUREMENT TARGET: M14 melanoma
growth [%]: 103
//
MOLECULE: O=C(c1ccc(Cl)cc1)C(c1c[nH]c2ccccc12)c1c[nH]c2ccccc12
MEASUREMENT TARGET: M14 melanoma
growth [%]: -71
//
MOLECULE: COc1cc(C2CC(c3ccccc3)=Nc3c(N)nc(N)nc3N2)ccc1Oc1nc(NCCO)nc(N2CCOCC2)n1 (configuration not stated)
MEASUREMENT TARGET: M14 melanoma
growth [%]: 104
//
MOLECULE: Cn1cc(/C=C(/SS/C(=C/c2cn(C)c3cccc(C(=O)O)c23)C(=O)O)C(=O)O)c2c(C(=O)O)cccc21
MEASUREMENT TARGET: M14 melanoma
growth [%]: 115
//
MOLECULE: Cc1ccc(S(=O)(=O)N2CCN(S(=O)(=O)c3oc(-c4ccccc4)nc3C#N)CC2)cc1
MEASUREMENT TARGET: M14 melanoma
growth [%]: 84.8
//
MOLECULE: O=C(Nc1ccc(OCc2ccc(Cl)cc2)cc1)Nc1ccc(Cl)c(C(F)(F)F)c1
MEASUREMENT TARGET: M14 melanoma
growth [%]: 12.5
//
MOLECULE: Cc1cc(N=C2NC(=O)/C(=C/c3cc(C(C)(C)C)c(O)c(C(C)(C)C)c3)S2)n[nH]1
MEASUREMENT TARGET: M14 melanoma
growth [%]: 24.7

Query: Query (molecule): `Fc1ccc(/C=C/c2nc3ccccc3n3c(-c4ccc(Cl)cc4)nnc23)cc1` ; field requested: growth
Reply: 63.8

Query: Would you mind telling me what growth value was observed for C#CCOc1cc(N(CC)CC)ccc1C(C(=O)NC(C)(C)C)N(C(=O)C1CCc2cc(F)ccc2O1)c1ccc(F)cc1F (configuration not stated) ?
Reply: 43.3

Query: # input molecule: CC1(C)CC[C@]2(C(=O)O)CC[C@]3(C)C(=CCC4[C@@]5(C)C[C@@H](O)[C@@H]6OC(c7cccc(F)c7)OC[C@@]6(C)C5CC[C@]43C)C2C1 (some centres not stated) ; wanted: its growth
Reply: 46

Query: Would you mind telling me what growth value was observed for `O=C1NC(=S)S/C1=C\c1cn(-c2ccccc2)nc1-c1ccc([N+](=O)[O-])cc1` ?
Reply: 20.5

Query: Consider the molecule shown here: `COc1ccc(Cn2cc(C#N)c(N)c2C(C)=O)c(OC)c1` What is its recorded growth?
Reply: 99.8

Query: # input molecule: `C#C[C@]1(O)CC[C@H]2[C@@H]3CC=C4c5sc(Nc6ccc(N(C)C)cc6)nc5CC[C@]4(C)[C@H]3CC[C@@]21C` ; wanted: its growth
Reply: -12.3

Query: Which growth value is on record for `COc1ccc(-n2c(SCC(=O)NNS(=O)(=O)c3ccccc3)nc3ccc(Cl)cc3c2=O)cc1` ?
Reply: 104
